Read-out: Cytochrome P450 (CYP1A1), CYP1A1 (gene 1543)
MEASUREMENT_DESCRIPTION: LTEA_HepaRG_CYP1A1: Life Technologies and Expression Analysis (LTEA) Assay for Cytochrome P450 (CYP1A1) using HepaRG (AID 2283454)
CONDITION_LABEL: mRNA level, 48 h; actives raise or lower the signal
Activity calls are given as the source filed them. How the source made its calls: active means hit-call score of the fitted dose curve at least 0.9, where 1 is the maximum; inactive means score below 0.9.
Respond using exactly one of the listed classes: yes (1) for active, no (0) for inactive

CC(=O)OC/C=C(\C)CCC=C(C)C : no (0)
CC(=O)Oc1ccccc1C(=O)O : yes (1)
COCCOC[C@H](CC1(C(=O)NC2CCC(C(=O)O)CC2)CCCC1)C(=O)Oc1ccc2c(c1)CCC2 (some centres undefined) : no (0)
CCc1c(C(=O)NN2CCCCC2)nn(-c2ccc(Cl)cc2Cl)c1-c1ccc(Br)cc1 : yes (1)
Cc1ccc(C(C)C)c(O)c1 : no (0)
CCCCCCCCCCO : no (0)

Look up the recorded call for COc1ccc(C)cc1N in this test. no (0)

How did this test come out for O=[N+]([O-])C(CO)(CO)CO ? yes (1)

Hey, what did the test say about C1CCC(SSC2CCCCC2)CC1 ? yes (1)

For CCCc1cc(=O)[nH]c(=S)[nH]1 , which call appears in the assay record? yes (1)

I'd appreciate the recorded outcome for CC(C)c1ccc(C(=O)N=C(N)N)cc1S(C)(=O)=O from this test. yes (1)

Hey, what did the test say about CCCCCCCCCCCCCCCCCC(=O)O ? yes (1)

Please indicate how the test categorized CCOc1ccc2c(c1)C(C)=CC(C)(C)N2 . yes (1)

How was Nc1nc(N)c2nc(CNc3ccc(C(=O)N[C@@H](CCC(=O)O)C(=O)O)cc3)cnc2n1 classified in this test? no (0)

###

Read-out: Cytochrome P450 (CYP2B6), CYP2B6 (gene 1555)
MEASUREMENT_DESCRIPTION: LTEA_HepaRG_CYP2B6: Life Technologies and Expression Analysis (LTEA) Assay for Cytochrome P450 (CYP2B6) using HepaRG (AID 2283481)
CONDITION_LABEL: mRNA level, 48 h; actives raise or lower the signal
Activity calls are given as the source filed them. Rule for the calls: active = hit-call score of the fitted dose curve at least 0.9, where 1 is the maximum; inactive = score below 0.9.
Classes to choose from: active, inactive

CN[C@H]1CC[C@@H](c2ccc(Cl)c(Cl)c2)c2ccc(S(N)(=O)=O)cc21 : active

Give the logged outcome of this assay for the following compound: NCCO inactive

###

MEASUREMENT_DESCRIPTION: ATG_NF_kB_CIS: Attagene CIS-FACTORIAL HepG2 Assay for human Nuclear Factor Kappa B (NF-kB) (AID 2282991)
CONDITION_LABEL: HepG2 Attagene cis-factorial NF-kB reporter mRNA; actives raise or lower the signal
Active and inactive are the calls of the source. The calls were made as follows: active = hit-call score of the fitted dose curve at least 0.9, where 1 is the maximum; inactive = score below 0.9.
// classify into active, inactive

Reference set (3 entries):
C[Si]1(C)O[Si](C)(C)O[Si](C)(C)O[Si](C)(C)O1 : inactive
O=C(N[C@@H](Cc1ccccc1)[C@@H](O)C(=O)N1C[C@@H](O)[C@@H](O)C1)c1cc2cc(Cl)ccc2[nH]1 : inactive
COc1cc(-c2nc(NC(=O)c3cc4cc(C)cc(C)c4n3CC(=O)O)sc2CCC2CCCCC2)c(OC)cc1Cl : active

Record request — test call for CC1(C)CC(N=C=O)CC(C)(CN=C=O)C1 (stereo not given) inactive

# lookup: test call for COc1cc(C=O)ccc1O inactive

###

MEASUREMENT_DESCRIPTION: NVS_IC_rCaBTZCHL: NovaScreen (NVS) Ion Channel Assay for Calcium Channel, Type L, Benzothiazepine Site (CaBTZCHL) (AID 2283337)
Records with an inconclusive call do not appear. Calls of active or inactive are those of the source. How the source made its calls: active means hit-call score of the fitted dose curve at least 0.9, where 1 is the maximum; inconclusive means response in the unintended direction; inactive means score below 0.9.
// allowed return values: active, inactive

CN1CCN(Cc2cc(-c3ccc4[nH]c(=O)oc4c3)co2)[C@@H](c2ccc(F)cc2)C1 : active

Kindly provide the recorded test outcome for the following compound: COc1cc(S(=O)(=O)O)c(C)cc1N=Nc1c(O)ccc2cc(S(=O)(=O)O)ccc12 inactive

Hello, I am checking results. What call was entered for O=C(N[C@@H](Cc1ccccc1)[C@@H](O)C(=O)N1C[C@@H](O)[C@@H](O)C1)c1cc2cc(Cl)ccc2[nH]1 ? inactive

Which result was noted for this compound in the test: COc1ccc(S(=O)(=O)N2C(=O)[C@@](c3ccccc3OC)(N3C[C@H](O)C[C@H]3C(=O)N(C)C)c3cc(Cl)ccc32)c(OC)c1 active

Short answer needed: outcome of this test for CCc1c(C(=O)NN2CCCCC2)nn(-c2ccc(Cl)cc2Cl)c1-c1ccc(Br)cc1 ? inactive

###

MEASUREMENT_DESCRIPTION: ATG_CRE_CIS: Attagene CIS-FACTORIAL HepG2 Assay for human cAMP Responsive Element (CRE) binding protein 3 (AID 2282926)
CONDITION_LABEL: HepG2 CRE cis-reporter, Attagene multiplexed mRNA; actives raise or lower the signal
Protocol: ATG_CIS is a cell-based, multiplexed-readout assay that uses HepG2, a human liver cell line, with measurements taken at 24 hours after chemical dosing in a 24-well plate.ATG_CRE_CIS is one of 52 assay component(s) measured or calculated from the ATG_CIS assay. […] This assay endpoint, ATG_CRE_CIS, was analyzed with bidirectional fitting relative to DMSO as the negative control and baseline of activity. […]
Active and inactive are the calls of the source. Rule for the calls: active = hit-call score of the fitted dose curve at least 0.9, where 1 is the maximum; inactive = score below 0.9.
Answer with one of the outcomes true for active, false for inactive

COc1cc(C=O)ccc1O : false
NC(=O)Cn1c(=O)cc(CCN2CCN(c3nccc4sccc34)CC2)c2ccc(F)cc21 : false
Cc1nc(-c2ccc3c(c2)CCN(CCC2CCC(NC(=O)/C=C/c4ccc(F)cc4)CC2)CC3)no1 (stereo unspecified) : false
CCCCCCCCCCC : false
CCCCC(CC)COC(=O)CC(C(=O)OCC(CC)CCCC)S(=O)(=O)O (stereo unspecified) : false
CCNc1cccc(C)c1 : false
COc1ccc2c(c1)c(CC(=O)O)c(C)n2C(=O)c1ccc(Cl)cc1 : false
Cc1oc(-c2ccccc2)nc1CCOc1cccc2c1ccn2CCC(=O)O : false
CC(=O)Oc1ccccc1C(=O)O : false
C1CCC(SSC2CCCCC2)CC1 : false

Call for entry C[Si]1(C)O[Si](C)(C)O[Si](C)(C)O[Si](C)(C)O1 : false

Answer briefly: the call reported for Clc1cc(Cl)c(Cl)cc1Cl in this assay. false

###

Read-out: Human Leukocyte Antigen - DR isotype (HLADR), HLA-DRA (gene 3122)
MEASUREMENT_DESCRIPTION: BSK_3C_HLADR: BioMAP Diversity Plus: 3C Assay for Human Leukocyte Antigen - DR isotype (HLADR) Biomarker Activity (AID 2283019);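 on outcome: ELISA of cell-surface HLA-DR on HUVEC 24 h after dosing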
CONDITION_LABEL: primary human endothelial cells (HUVEC); actives raise or lower the signal
Activity calls are given as the source filed them. Rule for the calls: active = hit-call score of the fitted dose curve at least 0.9, where 1 is the maximum; inactive = score below 0.9.
Your response should consist of one outcome taken from active, inactive

Solved entries:
CCCCOC(=O)CCCCCCCCC(=O)OCCCC : inactive
Cc1ccc(C)c(O)c1C : inactive
C=CCOC(=O)c1ccccc1C(=O)OCC=C : inactive
C1CCC(SSC2CCCCC2)CC1 : active
CC(C)(C)c1cc(O)c(C(C)(C)C)cc1O : active

Test call for this compound, please: NS(=O)(=O)c1cc2c(cc1Cl)NCNS2(=O)=O inactive

Hi, do you know how CCOC(=O)CCC(=O)OCC came out in this test? inactive

What is the recorded call for this compound in the test? COC(=O)c1ccc(O)cc1 inactive

###

MEASUREMENT_DESCRIPTION: APR_HepG2_StressKinase_24hr: Apredica 24-hour HepG2 Assay for Stress Kinase (AID 2282922)
CONDITION_LABEL: HepG2 stress kinase (phospho-c-Jun) imaging, actives raise or lower the signal
Active and inactive are the calls of the source. The calls were made as follows: active = hit-call score of the fitted dose curve at least 0.9, where 1 is the maximum; inactive = score below 0.9.
Your response should consist of one outcome taken from T for active, F for inactive

Cc1cccc(Nc2cc(Cl)nc(SCC(=O)O)n2)c1C : F
Cc1oc(-c2ccccc2)nc1CCOc1cccc2c1ccn2CCC(=O)O : F
Cc1ccc(C)c(O)c1C : F
CC1(C)CC(N=C=O)CC(C)(CN=C=O)C1 (stereo not drawn) : F
CCOC(=O)CCC(=O)OCC : F
Clc1cc(Cl)c(Cl)cc1Cl : F
COc1cc(-c2nc(NC(=O)c3cc4cc(C)cc(C)c4n3CC(=O)O)sc2CCC2CCCCC2)c(OC)cc1Cl : T
CC(C)c1ccc(C(=O)N=C(N)N)cc1S(C)(=O)=O : F
Cc1ccc(Cl)cc1 : F
C1CCC(SSC2CCCCC2)CC1 : F

Write down the call the test reported for this molecule. Item: Cc1ccc(N(C)C)cc1 F

# fetch the recorded call for CCNc1cccc(C)c1 here F

What outcome does the record of this test show for CCCCCCCCCCC ? F

Field: outcome | Entry: CN1CCCC1=O F

Hi, sorry to bother you, what did the test record for COC(=O)c1ccc(O)cc1 ? F

Could you check what this test reported for CN[C@H]1CC[C@@H](c2ccc(Cl)c(Cl)c2)c2ccc(S(N)(=O)=O)cc21 ? F

For CCCCCCCCCCCCCCCCCC(=O)O , what call appears in the results of this test? F

Numbers sourced from PubChem BioAssay (EPA / NIEHS).
